Give protein stability index for every item shown.
B1: MFF (parent)
chain: DDLTVVDAASLRRQIIKLNRRLQL

Variants of: B1
Test Protocol: protein stability index of a GFP-peptide fusion (GPS, HEK-293T) (PSI 1-6); higher = more stable;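 further: lentivirally expressed fusions sorted by FACS into six bins by GFP to DsRed ratio, PSI derived from sequencing read proportions per bin multiplied by bin number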
Experimental Context: c terminus: a fixed tail appended

protein stability index for `L11I` is 2.72

# protein stability index of `K17G` = 1.99

Lab note: `D7R` gave protein stability index of 2.93

variant `V6R` , protein stability index observed: 2.91

Lab note: measured protein stability index of `N19Q` was 2.01

Measured protein stability index, `S10K` : 1.79

# variant `T4H` ; its protein stability index = 1.7

Sure, the documented protein stability index for `I16S` is 1.52

Noted for `R20M` : its protein stability index reads 2.21

Documented protein stability index of `L11Q` : 3.24

The measured protein stability index associated with `S10H` reads 2.02

Note to self: protein stability index recorded for `D7E` was 2.04

For this variant ( `I15E` ), measured protein stability index is 3.83

Value of measured protein stability index for the entry `L22H` : 2.95

Item: `D1R` | protein stability index: 2.45

The recorded protein stability index for `L24T` is 2.38

For `L11H` the variant record lists protein stability index as 3.19

For `I16D` the variant record lists protein stability index as 2.85

According to the records, this variant `T4S` displays protein stability index of 2.43

// `S10W` : protein stability index value = 3.84

Noted for `L22V` : its protein stability index reads 2.61

In plain terms, `R21P` has a documented protein stability index of 2.99

// sample `I16R` , its protein stability index was 3.58

protein stability index measured on `Q23E` = 2.5

Lab note: measured protein stability index of `R20W` was 1.37

protein stability index in this record for `L24M` : 1.71

The variant `R20E` showed protein stability index equal to 2.02

Reported protein stability index of `L11G` : 3.84

Input `D1K` . Output protein stability index: 1.84

// sample `L22I` , its protein stability index was 1.99

Lab book: protein stability index of `T4A` noted as 1.91

The variant `V5K` showed protein stability index equal to 2.47

// sample `T4L` , its protein stability index was 2.62

protein stability index reported for this variant `V5F` : 1.72

The recorded protein stability index for `K17Y` is 1.89

So, `S10I` ? Its protein stability index was 1.72

Record `D1V` , field protein stability index: 2.39

Item: `Q14K` | protein stability index: 2.23

// field: protein stability index; key: `D2W` ; value = 2.86

Measured protein stability index of `Q23V` : 1.34

Value of protein stability index reported for the variant `D7T` is 1.64

Reported protein stability index of `R21H` : 1.6

Quick note, protein stability index for `V5L` landed at 1.69

Briefly, protein stability index measured for `N19M` : 1.74

Entry under test: `L22N` . Its protein stability index was 3.78

// protein stability index value for `D7N` : 1.89
